Read-out: Interferon-gamma inducible Protein 10 (IP10), CXCL10 (gene 3627)
ASSAY_INFO: BSK_BE3C_IP10: BioMAP Diversity Plus: BE3C Assay for Interferon-gamma inducible Protein 10 (IP10) Biomarker Activity (AID 2283034)
MEASUREMENT_SETUP: primary human bronchial epithelial cells; actives raise or lower the signal
Description: BSK_BE3C is a cell-based, multiplexed-readout assay that uses bronchial epithelial cell, a human lung primary cell, with measurements taken at 24 hours after chemical dosing in a 96-well plate.BSK_BE3C_IP10 is an assay component measured in the BSK_BE3C assay. It measures IP-10 antibody related to regulation of gene expression using ELISA technology.Data from the assay component BSK_BE3C_IP10 was analyzed into 1 assay endpoint. […]
The source made the active and inactive calls. Rule for the calls: active = hit-call score of the fitted dose curve at least 0.9, where 1 is the maximum; inactive = score below 0.9.
The reply should name one outcome from active, inactive

Consider the worked cases shown below.
COMPOUND: N#CCCC(Br)(C#N)CBr (stereo not given)
LABEL: active
--
COMPOUND: Cc1cccc(OP(=O)(Oc2cccc(C)c2)Oc2cccc(C)c2)c1
LABEL: inactive
--
COMPOUND: CCCCCCCCCCCCc1cccc(S(=O)(=O)O)c1
LABEL: active
--
COMPOUND: C[C@]12CC[C@@H](O)C[C@@H]1CC[C@@H]1[C@@H]2CC[C@]2(C)C(=O)CC[C@@H]12
LABEL: inactive
--
COMPOUND: Oc1cccc(-c2ccccc2)c1
LABEL: inactive
--
COMPOUND: O=C(O)COc1cc(Cl)c(Cl)cc1Cl
LABEL: inactive
--
COMPOUND: Oc1c(Cl)cc(Cl)cc1Cl
LABEL: inactive
--
COMPOUND: CC(C)(C)c1ccccc1O
LABEL: inactive
--
COMPOUND: Nc1c(Oc2ccccc2)cc(O)c2c1C(=O)c1ccccc1C2=O
LABEL: inactive

Task: Check the results log: what was the call for `Cc1cc(C(C)(C)c2ccc(O)c(C)c2)ccc1O` ?
Result: active

====

Read-out: Monokine induced gamma interferon (MIG), CXCL9 (gene 4283)
ASSAY_INFO: BSK_3C_MIG: BioMAP Diversity Plus: 3C Assay for Monokine induced gamma interferon (MIG) Biomarker Activity (AID 2283021)
MEASUREMENT_SETUP: primary human endothelial cells (HUVEC); actives raise or lower the signal
Activity calls are given as the source filed them. How the source made its calls: active means hit-call score of the fitted dose curve at least 0.9, where 1 is the maximum; inactive means score below 0.9.
The reply should name one outcome from true (active), false (inactive)

Consider the worked cases shown below.
COMPOUND: CN(C)C(=S)S
LABEL: false
--
COMPOUND: O=S(=O)(C(Cl)(Cl)Cl)C(Cl)(Cl)Cl
LABEL: true
--
COMPOUND: COCC(=O)N(c1c(C)cccc1C)[C@H](C)C(=O)OC
LABEL: false
--
COMPOUND: O=C(N[C@H]1CN2CCC1CC2)c1ccc2c(c1)OCCO2
LABEL: false
--
COMPOUND: COc1ccccc1N
LABEL: false

Task: Check the results log: what was the call for `O=C(O)C1(c2ccc3c(c2)OC[C@H](Cc2ccc(-c4ccccc4)cc2)[C@H]3O)CCCC1` ?
Result: true

Task: Check the results log: what was the call for `CCOP(=O)(OCC)SCCSCC` ?
Result: false

Task: Check the results log: what was the call for `Clc1cccc(Cl)c1` ?
Result: false

Task: Check the results log: what was the call for C=CC(Cl)CCl (centres undefined) ?
Result: false

Task: Check the results log: what was the call for `Cc1cccc(OP(=O)(Oc2cccc(C)c2)Oc2cccc(C)c2)c1` ?
Result: false

Task: Check the results log: what was the call for CC(C)(COCC1CO1)COCC1CO1 (centres undefined) ?
Result: false

Task: Check the results log: what was the call for O=c1oc2ccccc2c(O)c1C(CC(O)c1ccc(-c2ccc(Br)cc2)cc1)c1ccccc1 (centres undefined) ?
Result: true

Task: Check the results log: what was the call for `Nc1ccc(N)cc1` ?
Result: false

Task: Check the results log: what was the call for `Clc1cccc(Cl)c1Cl` ?
Result: false

Task: Check the results log: what was the call for `CCOP(=O)(OCC)OC(=CCl)c1ccc(Cl)cc1Cl` ?
Result: false

Task: Check the results log: what was the call for `CCOP(=S)(OCC)OP(=S)(OCC)OCC` ?
Result: false

Task: Check the results log: what was the call for `CCCCOC(=O)COC(=O)c1ccccc1C(=O)OCCCC` ?
Result: false

Task: Check the results log: what was the call for `CCOC(=O)CC(=O)CCl` ?
Result: false

Task: Check the results log: what was the call for `c1ccc2sc(SNC3CCCCC3)nc2c1` ?
Result: false

Task: Check the results log: what was the call for Cc1cc(Cl)ccc1OC(C)C(=O)O (centres undefined) ?
Result: false

Task: Check the results log: what was the call for `CCOC(=O)CCN(SN(C)C(=O)Oc1cccc2c1OC(C)(C)C2)C(C)C` ?
Result: false

Task: Check the results log: what was the call for `O=C(Cc1ccccc1)OCCc1ccccc1` ?
Result: false

Task: Check the results log: what was the call for `O=C1C=CC(=O)c2ccccc21` ?
Result: true

Task: Check the results log: what was the call for `Cc1cc(C(C)(C)c2ccc(O)c(C)c2)ccc1O` ?
Result: false

====

Read-out: Monokine induced gamma interferon (MIG), CXCL9 (gene 4283)
ASSAY_INFO: BSK_CASM3C_MIG: BioMAP Diversity Plus: CASM3C Assay for Monokine induced gamma interferon (MIG) Biomarker Activity (AID 2283048);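 note: MIG protein level measured by ELISA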
MEASUREMENT_SETUP: primary human coronary artery smooth muscle cells; actives raise or lower the signal
Calls of active or inactive are those of the source. How the source made its calls: active means hit-call score of the fitted dose curve at least 0.9, where 1 is the maximum; inactive means score below 0.9.
ASSAY_READOUT: outcome

COMPOUND: Cc1cc(C)cc(C)c1
READING: inactive
--
COMPOUND: Oc1c(Cl)cc(Cl)cc1Cl
READING: inactive
--
COMPOUND: Oc1c(Br)cc(Br)cc1Br
READING: inactive
--
COMPOUND: OC(Cc1ccccc1Cl)(Cn1[nH]cnc1=S)C1(Cl)CC1 (centres undefined)
READING: inactive

====

EXPERIMENTAL_TARGET: sheep Cyclooxygenase-1 (Cox1), PTGS1 (gene 443551)
ASSAY_INFO: NVS_ENZ_oCOX1: NovaScreen (NVS) Enzymatic Assay for sheep Cyclooxygenase-1 (Cox1) (AID 2283239);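 note: actives reduce cyclooxygenase activity so potencies are for inhibitors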
Inconclusive results are not listed. The source made the active and inactive calls. The calls were made as follows: active = hit-call score of the fitted dose curve at least 0.9, where 1 is the maximum; inconclusive = response in the unintended direction; inactive = score below 0.9.
The reply should name one outcome from t for active, f for inactive

COMPOUND: CC(C)(C)c1ccccc1O
LABEL: f
--
COMPOUND: O=[N+]([O-])c1cccc2ccccc12
LABEL: f
--
COMPOUND: CN(C)CCN(C)C
LABEL: f
--
COMPOUND: c1ccc2sc(SNC3CCCCC3)nc2c1
LABEL: f

Task: Check the results log: what was the call for `CCCCCCCCCCCCc1cccc(S(=O)(=O)O)c1` ?
Result: t

Task: Check the results log: what was the call for `O=C(O)COc1cc(Cl)c(Cl)cc1Cl` ?
Result: f

Task: Check the results log: what was the call for O=c1oc2ccccc2c(O)c1C(CC(O)c1ccc(-c2ccc(Br)cc2)cc1)c1ccccc1 (stereo unspecified) ?
Result: t

Task: Check the results log: what was the call for `Nc1ncn[nH]1` ?
Result: f

Task: Check the results log: what was the call for `[Cl][Sn]([c]1ccccc1)([c]1ccccc1)[c]1ccccc1` ?
Result: f

Task: Check the results log: what was the call for CC(C=O)Cc1ccc2c(c1)OCO2 (stereo unspecified) ?
Result: t

Task: Check the results log: what was the call for `COc1ccc(N)cc1` ?
Result: t

====

Read-out: Pselectin, SELP (gene 6403)
ASSAY_INFO: BSK_4H_Pselectin: BioMAP Diversity Plus: 4H Assay for Pselectin Biomarker Activity (AID 2283026)
MEASUREMENT_SETUP: primary human endothelial cells (HUVEC); actives raise or lower the signal
Activity calls are given as the source filed them. How the source made its calls: active means hit-call score of the fitted dose curve at least 0.9, where 1 is the maximum; inactive means score below 0.9.
The reply should name one outcome from class 1 (active), class 0 (inactive)

COMPOUND: C#CCOC(=O)/C=C(C)/C=C/CC(C)CCCC(C)C (stereo not drawn)
LABEL: class 1

Task: Check the results log: what was the call for `O=C(O)COc1cc(Cl)c(Cl)cc1Cl` ?
Result: class 0

Task: Check the results log: what was the call for N#CCCC(Br)(C#N)CBr (stereo not drawn) ?
Result: class 1

Task: Check the results log: what was the call for `CCOP(=O)(OCC)SCCSCC` ?
Result: class 0

Task: Check the results log: what was the call for `Cc1cccc(OP(=O)(Oc2cccc(C)c2)Oc2cccc(C)c2)c1` ?
Result: class 0

Task: Check the results log: what was the call for `CCOC(=O)CC(=O)CCl` ?
Result: class 1

Task: Check the results log: what was the call for `Cc1cc(C(C)(C)c2ccc(O)c(C)c2)ccc1O` ?
Result: class 1

Task: Check the results log: what was the call for `CN(C)C(=S)S` ?
Result: class 0

====

ASSAY_INFO: BSK_4H_Eotaxin3: BioMAP Diversity Plus: 4H Assay for Eotaxin 3 Biomarker Activity (AID 2283000);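 note: CCL26 protein level quantified by ELISA in parallel with SRB cytotoxicity check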
MEASUREMENT_SETUP: primary human endothelial cells (HUVEC); actives raise or lower the signal
Active and inactive are the calls of the source. Rule for the calls: active = hit-call score of the fitted dose curve at least 0.9, where 1 is the maximum; inactive = score below 0.9.
The reply should name one outcome from YES for active, NO for inactive

Task: Check the results log: what was the call for `CCCCCCCCCCCCc1cccc(S(=O)(=O)O)c1` ?
Result: NO
